Each recorded value in this set is attributed to patent US20250304643A1.

# Assayed target: T1, human GLP-2R (glucagon-like peptide-2 receptor) (human, UniProt O95838 1-553)
# T1 sequence (looked up): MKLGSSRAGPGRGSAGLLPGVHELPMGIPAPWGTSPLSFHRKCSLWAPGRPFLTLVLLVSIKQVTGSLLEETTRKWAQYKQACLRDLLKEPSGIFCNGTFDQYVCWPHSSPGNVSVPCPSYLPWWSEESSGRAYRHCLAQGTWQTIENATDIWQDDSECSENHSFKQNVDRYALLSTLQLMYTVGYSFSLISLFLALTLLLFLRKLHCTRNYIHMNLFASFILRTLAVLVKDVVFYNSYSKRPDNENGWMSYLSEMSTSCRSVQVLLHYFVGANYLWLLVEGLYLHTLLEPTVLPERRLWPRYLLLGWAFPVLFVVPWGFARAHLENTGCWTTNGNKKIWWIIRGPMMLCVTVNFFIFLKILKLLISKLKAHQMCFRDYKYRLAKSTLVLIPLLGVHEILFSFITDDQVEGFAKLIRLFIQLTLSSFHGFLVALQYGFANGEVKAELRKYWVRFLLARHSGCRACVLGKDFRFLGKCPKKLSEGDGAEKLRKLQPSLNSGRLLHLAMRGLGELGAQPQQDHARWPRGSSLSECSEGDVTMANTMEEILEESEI
# Assay overview: cell-based or functional assay
Where no end group is shown, it is not given here. [ ]: non-standard residue; d: D form. The star is where a group is joined. Palmitoyl = CCCCCCCCCCCCCCCC(=O)*; Aib = CC(C)(N)C(=O)O
Overview of recorded cAMP assay: Efficacy GLP-2R for various binders
Dear colleague, please return just the value in %, with no unit written.

# count of solved cases: 2
| Binder | Result value |
| --- | --- |
| Palmitoyl-HADGTFISDYSTILDNLAARDFINWLIQTKITKAEWKHAITQ [Compound no. 49] | 92 |
| Palmitoyl-HADGTFISDYSTILDNLAARDFINWLIETKITKNDWKHNITQ [Compound no. 51] | 66 |

Note: attention shifts to another entry.
Give its cAMP assay: Efficacy GLP-2R value. Item: Palmitoyl-HADGTFISDYST[Aib]LDNLAARDFINWLIQTKITKNDWKHNITQ [Compound no. 53]
79
